Molecular target: Adenosine receptor A1 (Rattus norvegicus) (UniProt P25099);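 further: radioligand displacement of N6-[3H]cyclohexyladenosine binding in rat brain membranes, PCY computed as the log of 100000 divided by IC50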
Sequence (whole entry): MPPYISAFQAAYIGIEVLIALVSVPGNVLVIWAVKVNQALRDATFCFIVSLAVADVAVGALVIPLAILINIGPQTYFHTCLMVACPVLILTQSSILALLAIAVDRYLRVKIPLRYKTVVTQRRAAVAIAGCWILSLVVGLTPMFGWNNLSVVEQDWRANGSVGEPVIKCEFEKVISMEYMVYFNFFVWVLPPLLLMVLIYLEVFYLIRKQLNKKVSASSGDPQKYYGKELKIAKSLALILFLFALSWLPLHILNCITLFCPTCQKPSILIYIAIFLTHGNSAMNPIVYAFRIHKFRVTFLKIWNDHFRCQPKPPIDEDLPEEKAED
Details: Brain; Membrane
Description: Binding affinity against adenosine A1 receptor in rat brain membrane preparations using N6-[3H]cyclohexyladenosine as radioligand, PCY = log (100000/IC50).
Experimental readout: PCY
Field format: numeric only.

// known answers, use as guide
# Compound string, Recorded value
records = [
    ("COc1ccccc1-c1nc2c(=O)n(C)c(=O)n(C)c2[nH]1", 2.5),
    ("Cc1nn(C)c2c(O)nc(-c3ccc(Cl)c(Cl)c3)nc12", 2),
    ("Cc1nn(C)c2c(O)ncnc12", 0.7),
    ("Cn1c(=O)c2nc(-c3ccccc3N)[nH]c2n(C)c1=O", 4.3),
]

In one line, give reported PCY of the entry Cc1nn(C)c2c(O)nc(-c3ccccc3)nc12 . 2

In one line, give reported PCY of the entry Cc1nn(C)c2c(O)nc(-c3cccc(N)c3)nc12 . 1.8

In one line, give reported PCY of the entry CCn1nc(C)c2nc(-c3ccccc3)nc(O)c21 . 2.2
